Data provenance: paper PMC5601359

System: HIV-1 vector carrying Y143R IN mutant
Assay Overview: single-round HIV-1 infectivity assay, vector with Y143R IN
Type: cell-based
Assay Context: Human immunodeficiency virus 1, HOS, read-out: EC50 Y143R
Metric Name: EC50 (nM)

[[record]]
smiles_str = "COC(=O)CNc1c(C(=O)NCc2ccc(F)cc2F)c(=O)n(O)c2ncccc12"
unit_of_measure = "nM"
numeric_readout = 4.6

[[record]]
smiles_str = "Nc1c(C(=O)NCc2ccc(F)cc2F)c(=O)n(O)c2ncc(CCCCCCOC(=O)c3ccccc3)cc12"
unit_of_measure = "nM"
numeric_readout = 3.5


----------
Measured Target: HIV-1 IN (Human immunodeficiency virus type 1 group M subtype B, UniProt P12497)
Assay Overview: in vitro IN assay, strand transfer
Assay type: biochemical
Assay Context: in vitro IC50 ST, gel-based protocol, Mg2+ cofactor
pIC50: −log10 of the molar value.
Metric Name: pIC50

[[record]]
smiles_str = "Nc1c(C(=O)NCc2ccc(F)cc2F)c(=O)n(O)c2ncc(CCCCCCOC(=O)c3ccccc3)cc12"
metric_name = "pIC50"
numeric_readout = 5.48


----------
Measured Target: UniProt:P12497
Assay Overview: in vitro IN assay, strand transfer
Type: biochemical
Assay Context: ST IC50, as stated in text
// reported IC50 per item
Metric Name: IC50

[[record]]
smiles_str = "CC(=O)OCCCc1cnc2c(c1)c(N)c(C(=O)NCc1ccc(F)cc1F)c(=O)n2O"
measured_target = "UniProt:P12497"
result = "≤ 10 nM"

[[record]]
smiles_str = "COC(=O)CCc1cnc2c(c1)c(N)c(C(=O)NCc1ccc(F)cc1F)c(=O)n2O"
measured_target = "UniProt:P12497"
result = "≤ 10 nM"

[[record]]
smiles_str = "Nc1c(C(=O)NCc2ccc(F)cc2F)c(=O)n(O)c2ncc(/C=C/C(=O)NCCO)cc12"
measured_target = "UniProt:P12497"
result = "< 10 nM"

[[record]]
smiles_str = "Nc1c(C(=O)NCc2ccc(F)cc2F)c(=O)n(O)c2ncc(CCC(=O)NCCO)cc12"
measured_target = "UniProt:P12497"
result = "< 10 nM"

[[record]]
smiles_str = "Nc1c(C(=O)NCc2ccc(F)cc2F)c(=O)n(O)c2ncc(CCC(=O)O)cc12"
measured_target = "UniProt:P12497"
result = "≤ 10 nM"


----------
Assay Overview: in vitro
Assay Context: human
Metric Name: CC50 (µM)

[[record]]
smiles_str = "Nc1c(C(=O)NCc2ccc(F)cc2F)c(=O)n(O)c2ncc(CCCCCCOC(=O)c3ccccc3)cc12"
numeric_readout = 14.4


----------
Property: IC50; scope: individual molecules
Measured Target: HIV-1 IN (Human immunodeficiency virus type 1 group M subtype B)
Assay Overview: in vitro IN assay, 3′-processing
Assay type: biochemical
Metric Name: IC50

[[record]]
smiles_str = "COC(=O)CNc1c(C(=O)NCc2ccc(F)cc2F)c(=O)n(O)c2nc(N3CCCCC3)ccc12"
measured_target = "HIV-1 IN (Human immunodeficiency virus type 1 group M subtype B)"
result = "> 333 µM"

[[record]]
smiles_str = "COC(=O)CNc1c(C(=O)NCc2ccc(F)cc2F)c(=O)n(O)c2nc(N3CCOCC3)ccc12"
measured_target = "HIV-1 IN (Human immunodeficiency virus type 1 group M subtype B)"
result = "> 333 µM"

